- Test system: A498 renal
- ASSAY_COMMENT: NCI-60 one-dose screen, 48 h (100 = growth as untreated, 0 = no growth, -100 = all killed)
- CONDITION_SET: 10 µM unless noted
About 83,000 compounds went through this panel and 20% of them were active in at least one assay; those are over-represented in the sample as a whole.
# reported growth; entries follow
Return type: number; implicit unit %.

COMPOUND: O=C1C=CC2(NN=C(c3ccccc3)N2c2ccc(Cl)cc2)c2cccc(O)c21 (centres undefined)
UNITS: %
EXPERIMENTAL_RESULT: 91.3
--
COMPOUND: Cc1nc(-c2cn3c(n2)-c2ccc(-c4cnn(C(C)(C)C(N)=O)c4)cc2OCC3)n(C(C)C)n1
UNITS: %
EXPERIMENTAL_RESULT: -31.3
--
COMPOUND: COc1cccc(Nc2ncnn3ccc(CN4CC[C@@H](N)[C@H](O)C4)c23)c1
UNITS: %
EXPERIMENTAL_RESULT: -38.1
--
COMPOUND: Cc1cc(Nc2cc(N3CCN(C)CC3)nc(/C=C/c3ccccc3)n2)n[nH]1
UNITS: %
EXPERIMENTAL_RESULT: -86.7
--
COMPOUND: COc1cc2c(Oc3ccc(NC(=O)C4(C(=O)Nc5ccc(F)cc5)CC4)cc3F)ccnc2cc1OCCCN1CCOCC1
UNITS: %
EXPERIMENTAL_RESULT: -92.4

q: # growth lookup, item O=C(NOC[C@H](O)CO)c1ccc(F)c(F)c1Nc1ccc(I)cc1F
a: -19.9

q: Consider the compound shown here: Cc1cc(-c2cc(OC(=O)c3ccccc3)ccc2Cl)cc2nnc(Nc3ccc(OCCN4CCCC4)cc3)nc12 What is its recorded growth?
a: 94.3

q: Quick check: growth of O=C(Cn1c(=O)ccn(CCCCCCCCOc2ccc(Br)cc2)c1=O)Nc1ccc(Oc2ccc(Cl)cc2)cc1 ?
a: 54.8

q: // returns reported growth for input COc1ccc2nc3cc(Cl)ccc3c(Nc3ccc(N(C)C)cc3)c2c1
a: 94.6
